IC95 overview
Tested on: Human immunodeficiency virus 1
Method notes: Antiviral activity against HIV1 3B in MT4 cells assessed as decrease in HIV1 p24 core antigen in presence of normal human serum
Type: functional
Measurement parameters: Human immunodeficiency virus 1, 3B

# Chem smiles, IC95
records = [
    ("CN(C)C(=O)Cc1ccccc1CNC(=O)c1nc(N2CCCCS2(=O)=O)c2cccnc2c1O", "1000 nM"),
    ("O=C(NCc1ccccc1)c1nc(N2CCCCS2(=O)=O)c2cccnc2c1O", "1000 nM"),
    ("O=C(NCc1ccc(F)cc1)c1nc(N2CCCCS2(=O)=O)c2cccnc2c1O", "102 nM"),
]
